- Species: Homo sapiens
- protocolDetails: Inhibition of dimerization of N-terminal His6-tagged human c-Myc bHLHZip domain (353 to 439 residues)/Max(151 residues) (unknown origin) expressed in Escherichia coli BL21DE3 assessed as inhibition of c-Myc/Max/DNA complex formation at 20 uM preincubated with c-Myc/Max for 1.5 hrs followed by incubation with DNA oligo for 0.5 hrs by EMSA analysis relative to control
- assayConditions: time 2.0 hrs
Records here are stratified by inhibition; strata: lower band = under 9%, central band = from 9% up to 40%, upper band = 40% and over

Consider the worked cases shown below.
> print(dat)
                               smilesstring         class
1  COc1cc(Oc2cccc(Nc3ccccc3)c2)cc(OC)c1CNCc1ccc(C)cc1  central band
2  COc1ccc(CCNCc2ccc(Oc3cccc(Nc4ccccc4)c3)cc2OC)cc1    upper band

# classify by inhibition band: COc1ccc(CCNCc2ccc(Oc3cccc(Nc4ccccc4)c3)c(OC)c2)cc1
upper band

Param item: CNCc1c(OC)cc(Oc2cccc(Nc3ccccc3)c2)cc1OC
lower band

Param item: COc1cc(Oc2cccc(Nc3ccccc3)c2)cc(OC)c1CNCc1ccc(Br)cc1
central band

Param item: COc1cc(Oc2cccc(Nc3ccccc3)c2)cc(OC)c1CNCc1ccc(F)cc1
central band

Param item: COc1cc(Oc2cccc(Nc3ccccc3)c2)cc(OC)c1CN(CCO)CCO
lower band

Param item: COc1ccc(CCCNCc2c(OC)cc(Oc3ccc(Nc4ccccc4)cc3)cc2OC)cc1
upper band

----------
- Tested on: HCT-15
- protocolDetails: Antiproliferative activity against human HCT-15 cells assessed as inhibition of cell viability measured after 72 hrs by MTT assay
- Assay type: functional, cell-based
- assayConditions: HCT-15, 72 h
measuredParameter: pIC50
One number for each entry, as −log10 of the molar value.

Some compounds with recorded pIC50:
> print(dat)
                               smilesstring  recordednumber
1  COc1cc(Oc2cccc(Nc3ccccc3)c2)cc(OC)c1CNC12CC3CC(CC(C3)C1)C2            5.19
2  COc1ccc(CCNCc2c(OC)cc(Oc3cccc(Nc4ccccc4)c3)cc2OC)cc1            5.90
3  COc1ccccc1CCNCc1c(OC)cc(Oc2cccc(Nc3ccccc3)c2)cc1OC            5.92
4  COc1ccc(CCNCc2ccc(Oc3cccc(Nc4ccccc4)c3)cc2)cc1            5.66
5  COc1cc(Oc2cccc(Nc3ccccc3)c2)cc(OC)c1CNCCc1ccc(F)cc1            5.63

Can you give me pIC50 for all of these, one by one?
1. CNCc1c(OC)cc(Oc2cccc(Nc3ccccc3)c2)cc1OC
2. COc1cc(Oc2cccc(Nc3ccccc3)c2)cc(OC)c1CNC1CC1
3. O=c1[nH]cc(F)c(=O)[nH]1
4. COc1cc(Oc2cccc(Nc3ccccc3)c2)cc(OC)c1CNCCc1ccc(O)cc1
5. COc1ccc(CCCNCc2c(OC)cc(Oc3cccc(Nc4ccccc4)c3)cc2OC)cc1
6. CCN1CCN(Cc2c(OC)cc(Oc3cccc(Nc4ccccc4)c3)cc2OC)CC1

1. 5.05
2. 5.21
3. 4.96
4. 5.21
5. 6.14
6. 5.29

Can you give me pIC50 for all of these, one by one?
1. COc1cc(Oc2cccc(Nc3ccccc3)c2)cc(OC)c1CNCc1ccccc1
2. COc1cc(Oc2cccc(Nc3ccccc3)c2)cc(OC)c1CNCc1ccc2c(c1)OCO2
3. COc1cc(Oc2cccc(Nc3ccccc3)c2)cc(OC)c1CNCc1ccc(Cl)cc1

1. 5.30
2. 5.05
3. 5.31

Can you give me pIC50 for all of these, one by one?
1. COc1cc(Oc2cccc(Nc3ccccc3)c2)cc(OC)c1CNCCc1ccccc1
2. COc1cc(Oc2cccc(Nc3ccccc3)c2)cc(OC)c1CNCCc1ccc(C)cc1

1: 5.21; 2: 5.54
